target: Norwalk GGI.1 Norovirus protease (Norovirus, UniProt Q83883); assay: Noro-Norwalk FRET protease assay (Norwalk GGI.1); type: biochemical, Norwalk virus; conditions: Table C; FRET protease assay; read-out: Norwalk GGI.1 IC50
Sequence (Q83883 1101-1281): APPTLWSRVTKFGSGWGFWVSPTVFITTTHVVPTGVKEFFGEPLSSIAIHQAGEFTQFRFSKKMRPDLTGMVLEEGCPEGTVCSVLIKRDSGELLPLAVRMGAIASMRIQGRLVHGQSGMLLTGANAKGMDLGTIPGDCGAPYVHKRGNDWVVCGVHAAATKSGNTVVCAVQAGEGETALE
Parameter: IC50. Scope: all listed entries.
property-label: IC50 (µM)

* O=C[C@H](CCC(=O)N1CCc2ccccc2CC1)NC(=O)[C@H](CC1CCCCC1)NC(=O)OCc1cccc(Cl)c1 (stereo in doubt) | 6.6
* CCOP(=O)(OCC)C(O)[C@H](CCC(=O)N(C)c1ccccc1)NC(=O)[C@H](CC1CCCCC1)NC(=O)OCc1cccc(Cl)c1 (stereo partly shown) | 50.9
* CN1C(=O)CCC(NC(=O)[C@H](CC2CCCCC2)NC(=O)OCc2cccc(Cl)c2)C1O (stereo partly shown) | 169
* CCNC(=O)CN(C)C(=O)CC[C@@H](C=O)NC(=O)[C@H](CC1CCCCC1)NC(=O)OCc1cccc(Cl)c1 | 2.7
* O=C[C@H](CCC(=O)N1CCOc2ccccc2C1)NC(=O)[C@H](CC1CCCCC1)NC(=O)OCc1cccc(Cl)c1 | 2.3
* CCS(=O)(=O)NCCN(C)C(=O)CC[C@@H](C=O)NC(=O)[C@H](CC1CCCCC1)NC(=O)OCc1cccc(Cl)c1 (stereo in doubt) | 10.1
* CCOCCOCCN(C)C(=O)CC[C@H](NC(=O)C(CC1CCCCC1)NC(=O)OCc1cccc(Cl)c1)C(O)P(=O)(OCC)OCC (stereo in doubt) | 133
